# measurement-description: pharmacokinetic study, plasma concentration after intraperitoneal administration
# Format: in vivo, ICR mice
# details: male, ICR, mouse, ip; plasma, 50 mg/kg i.p., 0.5 h; mean ± SEM
recorded-metric: concentration at 0.5 h (ng/mL)

> print(dat)
                                   molecule  units  measured
1  COc1ccc([C@H]2CC(=O)c3c(O)cc(OC)cc3O2)cc1 [(−)-NRG-DM, (−)-naringenin 4′,7-dimethyl ether]  ng/mL      2290

###

# measurement-description: pharmacokinetic study, plasma concentration after intraperitoneal administration
# Format: in vivo, ICR mice
# details: male, ICR, mouse, ip; plasma, 50 mg/kg i.p., 1 h; mean ± SEM
recorded-metric: concentration at 1 h (ng/mL)

> print(dat)
                                   compound  measured
1  COc1ccc([C@H]2CC(=O)c3c(O)cc(OC)cc3O2)cc1 [(−)-NRG-DM, (−)-naringenin 4′,7-dimethyl ether]      2220
